- TARGET: Flag-PTP1B(1-320) (Homo sapiens, UniProt P18031)
- Construct: Flag-PTP1B (residues 1-320 as a flag fusion); made in house
- Sequence (P18031 1-320): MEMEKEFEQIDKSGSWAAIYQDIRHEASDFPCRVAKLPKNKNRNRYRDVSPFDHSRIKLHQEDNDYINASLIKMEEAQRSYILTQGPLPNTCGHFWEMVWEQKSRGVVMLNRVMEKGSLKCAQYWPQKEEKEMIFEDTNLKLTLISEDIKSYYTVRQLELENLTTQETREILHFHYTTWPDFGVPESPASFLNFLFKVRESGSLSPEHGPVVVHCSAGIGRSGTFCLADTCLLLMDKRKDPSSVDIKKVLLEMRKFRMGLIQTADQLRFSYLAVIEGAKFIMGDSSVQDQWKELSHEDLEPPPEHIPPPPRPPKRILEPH
- TEST NAME: Enzyme kinetic assay (DiFMUP), Flag-PTP1B
- Type: biochemical
- RUN CONDITIONS: non-irradiated probes; competitive, reversible inhibitors of PTP1B
QUANTITY MEASURED: Ki (nM)

- NC(=O)[C@H](Cc1ccc(C(F)(F)P(=O)(O)O)c(Br)c1)NC(=O)[C@H](Cc1ccc(C(F)(F)P(=O)(O)O)c(Br)c1)NC(=O)c1cc(I)cc(C2(C(F)(F)F)N=N2)c1: 0.1
- NC(=O)[C@H](Cc1ccc(C(F)(F)P(=O)(O)O)cc1)NC(=O)[C@H](Cc1ccc(C(F)(F)P(=O)(O)O)cc1)NC(=O)c1cc(I)cc(C2(C(F)(F)F)N=N2)c1: 5

====

IC50 for assorted compounds
- TARGET: Flag-PTP1B(1-320) (Homo sapiens)
- Construct: Flag-PTP1B (residues 1-320 as a flag fusion); made in house
- TEST NAME: Enzyme kinetic assay (DiFMUP), Flag-PTP1B
- Format: biochemical
- RUN CONDITIONS: Flag-PTP1B(1-320), in the dark, 10 μM DiFMUP
QUANTITY MEASURED: IC50

* NC(=O)[C@H](Cc1ccc(C(F)(F)P(=O)(O)O)c(Br)c1)NC(=O)[C@H](Cc1ccc(C(F)(F)P(=O)(O)O)c(Br)c1)NC(=O)c1cc(I)cc(C2(C(F)(F)F)N=N2)c1 | 0.2 nM
* NC(=O)[C@H](Cc1ccc(C(F)(F)P(=O)(O)O)cc1)NC(=O)[C@H](Cc1ccc(C(F)(F)P(=O)(O)O)cc1)NC(=O)c1cc(I)cc(C2(C(F)(F)F)N=N2)c1 | 11 nM

====

IC50 for assorted compounds
- TARGET: Flag-CD45 (Mus musculus)
- Construct: Flag-CD45 (residues 556-1268 as a flag fusion)
- Sequence (P06800 581-1293 limits assumed): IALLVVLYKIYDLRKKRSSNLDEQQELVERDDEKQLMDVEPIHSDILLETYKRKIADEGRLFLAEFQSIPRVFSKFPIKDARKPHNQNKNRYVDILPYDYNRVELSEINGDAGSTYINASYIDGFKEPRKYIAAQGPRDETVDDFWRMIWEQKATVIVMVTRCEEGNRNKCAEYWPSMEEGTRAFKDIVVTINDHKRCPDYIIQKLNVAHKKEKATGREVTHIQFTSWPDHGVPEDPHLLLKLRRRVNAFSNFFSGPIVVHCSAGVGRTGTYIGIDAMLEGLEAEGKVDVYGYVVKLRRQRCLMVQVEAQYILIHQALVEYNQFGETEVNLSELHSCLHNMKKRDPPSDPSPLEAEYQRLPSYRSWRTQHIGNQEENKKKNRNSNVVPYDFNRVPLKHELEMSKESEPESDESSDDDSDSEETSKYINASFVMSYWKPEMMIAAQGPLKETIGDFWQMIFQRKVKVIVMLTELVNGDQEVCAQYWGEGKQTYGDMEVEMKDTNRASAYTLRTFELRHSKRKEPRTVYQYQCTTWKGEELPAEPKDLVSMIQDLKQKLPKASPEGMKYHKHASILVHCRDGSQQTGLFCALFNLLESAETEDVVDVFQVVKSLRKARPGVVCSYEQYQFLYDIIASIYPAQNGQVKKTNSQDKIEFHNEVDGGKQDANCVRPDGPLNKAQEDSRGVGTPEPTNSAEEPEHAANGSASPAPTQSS
- TEST NAME: Enzyme kinetic assay (DiFMUP), Flag-CD45
- RUN CONDITIONS: Flag-CD45, in the dark, 10 μM DiFMUP
QUANTITY MEASURED: IC50

* NC(=O)[C@H](Cc1ccc(C(F)(F)P(=O)(O)O)cc1)NC(=O)[C@H](Cc1ccc(C(F)(F)P(=O)(O)O)cc1)NC(=O)c1cc(I)cc(C2(C(F)(F)F)N=N2)c1 | 12.6 µM
* NC(=O)[C@H](Cc1ccc(C(F)(F)P(=O)(O)O)c(Br)c1)NC(=O)[C@H](Cc1ccc(C(F)(F)P(=O)(O)O)c(Br)c1)NC(=O)c1cc(I)cc(C2(C(F)(F)F)N=N2)c1 | 0.49 µM

====

- TARGET: Flag-PTP1B(1-320) (Homo sapiens, UniProt P18031)
- Construct: Flag-PTP1B (residues 1-320 as a flag fusion); made in house
- TEST NAME: Enzyme kinetic assay (DiFMUP), Flag-PTP1B
- Format: biochemical
- RUN CONDITIONS: Fla-PTP1B + 0.1% HSA, in the dark
- Description: Protein tyrosine phosphatases used in this study were expressed and purified using published procedures, as follows: (a) Flag-PTP1B (residues 1-320 as a flag fusion), Huyer et al. (29). (b) Flag-TCPTP (residues 1-281 as a flag fusion), Asante-Appiah et al. (30). […] For studies using H2O2-inactivated Flag-PTP1B, 100 μl of 2 μg/ml PTP1B was incubated with 100 μl of 1 mM or 20 mM H2O2 for 15 min to obtain 50% or 100% inactivated enzyme respectively as determined by the enzyme kinetic assay. […]
QUANTITY MEASURED: IC50

- NC(=O)[C@H](Cc1ccc(C(F)(F)P(=O)(O)O)c(Br)c1)NC(=O)[C@H](Cc1ccc(C(F)(F)P(=O)(O)O)c(Br)c1)NC(=O)c1cc(I)cc(C2(C(F)(F)F)N=N2)c1: 1.5 nM
- NC(=O)[C@H](Cc1ccc(C(F)(F)P(=O)(O)O)cc1)NC(=O)[C@H](Cc1ccc(C(F)(F)P(=O)(O)O)cc1)NC(=O)c1cc(I)cc(C2(C(F)(F)F)N=N2)c1: 14 nM

====

- TARGET: Flag-TCPTP (Homo sapiens, UniProt P17706)
- Construct: Flag-TCPTP (residues 1-281 as a flag fusion); made in house
- Sequence (P17706 1-281): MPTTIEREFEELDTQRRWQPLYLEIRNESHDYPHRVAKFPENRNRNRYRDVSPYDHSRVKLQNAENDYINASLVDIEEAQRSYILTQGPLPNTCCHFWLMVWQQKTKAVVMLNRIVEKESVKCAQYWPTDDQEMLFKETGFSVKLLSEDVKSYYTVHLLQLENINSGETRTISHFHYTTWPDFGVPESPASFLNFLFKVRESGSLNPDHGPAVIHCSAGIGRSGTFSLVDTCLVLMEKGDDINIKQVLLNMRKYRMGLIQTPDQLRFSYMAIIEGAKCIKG
- TEST NAME: Enzyme kinetic assay (DiFMUP), Flag-TCPTP
- Assay type: biochemical
- RUN CONDITIONS: in the dark, 10 μM DiFMUP
QUANTITY MEASURED: IC50 (nM)

* NC(=O)[C@H](Cc1ccc(C(F)(F)P(=O)(O)O)cc1)NC(=O)[C@H](Cc1ccc(C(F)(F)P(=O)(O)O)cc1)NC(=O)c1cc(I)cc(C2(C(F)(F)F)N=N2)c1 | 6
* NC(=O)[C@H](Cc1ccc(C(F)(F)P(=O)(O)O)c(Br)c1)NC(=O)[C@H](Cc1ccc(C(F)(F)P(=O)(O)O)c(Br)c1)NC(=O)c1cc(I)cc(C2(C(F)(F)F)N=N2)c1 | 0.1

The origin of these recorded values is patent US20070161542A1.
